Where these numbers come from: patent US7947854B2

System: secreted phospholipase B (LPL/LPTA activities)
Protocol: Radiometric assay, secreted LPL and LPTA activities (Lyso assay)
Type: biochemical, Cryptococcus neoformans H99
Run conditions: 250 μM
I would appreciate it if you labelled entries condition met when Lyso assay (% inhibition) LPTA is 10% or higher, otherwise condition not met.

Below are worked cases with known answers.
Molecule | Assigned class
CCCCCCCCCCCCCCCC[P+](CCCC)(CCCC)CCCC | condition met
CCCC[P+](CCCC)(CCCC)CCCCCCCCCCCC[P+](CCCC)(CCCC)CCCC [Compound 1] | condition not met
CC(C)CC[N+](CCCCCCCCCCCC[N+](CCC(C)C)(CCC(C)C)CCC(C)C)(CCC(C)C)CCC(C)C.[Cl-].[Cl-] | condition not met

Proceed to the following item.
stdin: Reported Lyso assay (% inhibition) LPTA reaches at least 10% for `CCCCC[N+](CCCCC)(CCCCC)CCCCCCCCCCCC[N+](CCCCC)(CCCCC)CCCCC.[Br-].[Br-]` ?
stdout: condition not met

====

Quick reference for Cytosolic LPTA activity, percentage of the control among some molecules
Tested on: cytosolic phospholipase B (LPL/LPTA activities)
Protocol: Radiometric assay, cytosolic LPL/LPTA activities
Format: biochemical, Cryptococcus neoformans H99
Run conditions: pH 7.0; modifier 10 mM (Triton X-100 0.1% w/v)
Report the figure in % without appending any unit label.

Sample smiles | Endpoint value
[Mg+2] | 85
[Ca+2] | 206
O=C(O)CN(CCN(CC(=O)O)CC(=O)O)CC(=O)O | 32
[Cl][Fe]([Cl])[Cl] | 21

In the following, a different molecule is considered.
// recorded Cytosolic LPTA activity, percentage of the control for `O=C(O)CN(CCOCCOCCN(CC(=O)O)CC(=O)O)CC(=O)O` : 29

====

// Lyso assay (% inhibition) LPTA lookup, one value per entry
Tested on: secreted phospholipase B (LPL/LPTA activities)
Protocol: Radiometric assay, secreted LPL and LPTA activities (Lyso assay)
Format: biochemical, Cryptococcus neoformans H99
Run conditions: 25 μM
State the answer as a number, implicitly in %.

As a guide, the following entries are already answered.
Sample smiles | Unit string | Endpoint value
C[N+](C)(C)CCCCCCCCCCCC[N+](C)(C)C | % | 4
CCCCC[N+](CCCCC)(CCCCC)CCCCCCCCCCCC[N+](CCCCC)(CCCCC)CCCCC.[Br-].[Br-] | % | 0
CCCC[P+](CCCC)(CCCC)CCCCCCCCCCCC[P+](CCCC)(CCCC)CCCC | % | 0
CC(C)CC[N+](CCCCCCCCCCCC[N+](CCC(C)C)(CCC(C)C)CCC(C)C)(CCC(C)C)CCC(C)C.[Cl-].[Cl-] | % | 0

Form: compound = `CCCC[N+](CCCC)(CCCC)CCCCCCCCCCCCCCCC[N+](CCCC)(CCCC)CCCC` ; Lyso assay (% inhibition) LPTA = 15

====

Test system: Cryptococcus neoformans ATCC 90112
Protocol: Antifungal susceptibility testing, microdilution MIC
Type: cell-based
Run conditions: Table 7; read-out: MIC (μM) Crypto. (ATCC 90112)
Examples of molecules with documented MIC follow.
Kindly provide the numeric value in µM only, without the unit symbol.

Sample smiles | Measured metric | Endpoint value
CCCCCC[N+](CCCCCC)(CCCCCC)CCCCCCCCCCCC[N+](CCCCCC)(CCCCCC)CCCCCC.[Cl-].[Cl-] | MIC | 17.5
CCCCCCCC[N+](CCCCCCCC)(CCCCCCCC)CCCCCCCCCCCC[N+](CCCCCCCC)(CCCCCCCC)CCCCCCCC.[Cl-].[Cl-] | MIC | 35
CC(C)CC[N+](CCCCCCCCCCCC[N+](CCC(C)C)(CCC(C)C)CCC(C)C)(CCC(C)C)CCC(C)C.[Cl-].[Cl-] | MIC | 4.4

GET /values?item= `CCCCC[N+](CCCCC)(CCCCC)CCCCCCCCCCCC[N+](CCCCC)(CCCCC)CCCCC.[Br-].[Br-]` &system= Cryptococcus neoformans ATCC 90112 returns MIC: 5.5
